# Lookup of reported apparent KD of MS2 coat protein keyed by entry
Test system: MS2 coat protein
Assay: apparent KD of MS2 coat protein; designed switch direction (-1 OFF switch, 1 ON switch): 1; higher = weaker reporter binding
Conditions: Eterna round: R95; input ligand: none
Give the quantity in µM, number only.

Solved entries:
residue_sequence: ACUUGCUUUUUGCUCAUCUUAUGUCCGAAACAUGAGGAUCACCCAUGUGUAGAUUAUGUGUUGUUUUUGAUACGUGA [JR_SHM208A_Sub066] (puzzle: Sensor for hsa-mir-208a)
u: µM
reported_measurement: 0.0269
//
residue_sequence: UCCGCUAUCUAGAAGGAUAUGCGUAAAUAAACAUGAGGAUCACCCAUGUACCGGCGAAAGCCGGUGCAGAAGGUUUAGCUAGUGA [Xeisgexe] (puzzle: Same State 2)
u: µM
reported_measurement: 0.39

Request the reported apparent KD of MS2 coat protein associated with UACCAACAAAUAAAACAAGCGUGCUCGUCACAUGAGGAUCACCCAUGUUUAAACGCUGUACCUACAUCCUCAGCGCC [Usatqulale] (puzzle: Sensor for hsa-mir-208a)
0.052

Need apparent KD of MS2 coat protein, item CUACGAGCGCCACAGGAUAUACUGAGACUCACAUGAGGAUCACCCAUGUCCAAUUCUCCCAAAUAGUAGAAGGGUGACGCGCUCG [Maenve] (puzzle: Same State 2)
0.95

Consider the sequence shown here: CGUGGGUGGCUGGAGGAUAUUCGAGUGGUAACAUGAGGAUCACCCAUGUGUCGCGCGGUACAUGAGGAGAAGGCUGGCGGCCGGC (puzzle: Same State 2) What is its recorded apparent KD of MS2 coat protein?
0.0762

====

Test system: K4 kissing-loop RNA reporter;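 note: bound reporter read as fluorescence of individual clusters on recovered sequencing chips by microscopy, with normalized cluster intensities fitted with a binding model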
Assay: apparent KD of K4 kissing-loop reporter; higher = weaker reporter binding
Conditions: Eterna round: R107; input ligand: arginine 13.2 mM
Recorded apparent KD of K4 kissing-loop reporter by entry
The reply should contain only the number, in nM.

The following sequences have reported results that may help.
residue_sequence: UUUACCAGUGAUGUUGGCCUAGUAUUUACACGAGGACCGGUACGGCCGCCACUCGCAUUAUCGGACUUUGAUAAGCAUAUUAUAU [theeternabot_sameState_KL_Trp_A_28]
apparent KD of K4 kissing-loop reporter (nM): 283

residue_sequence: GGGACGCUAGCUCGAAUGUAGUGAUUUGAUACCAGCCUGUCACUUGGCCCUUGGCAGCAAAGCAGAGUGAUGUUCUGACCAACCU [theeternabot_sameState_KL_Theo_A_47]
apparent KD of K4 kissing-loop reporter (nM): 298

// next item, apparent KD of K4 kissing-loop reporter requested
What does the data say about its apparent KD of K4 kissing-loop reporter? Entry: CCCAGUGAUGUUGGUUAAUAUAUUGAUUAACGAGGACCGGUACGGCCGCCACUCGAUAUUUCUAUAAUUAAAAGUUUUGUUUAAA [JR_SSTryptoA_Sub001]
426

====

System: MS2 coat protein
Assay: apparent KD of MS2 coat protein; designed switch direction (-1 OFF switch, 1 ON switch): -1; higher = weaker reporter binding
Settings: Eterna round: R95; input ligand: microRNA oligo, concentration not stated
Reported apparent KD of MS2 coat protein values follow for various sequences
Record the value in nM, omitting the unit from your answer.

Examples with answers:
residue_sequence: GGUUGGCGAGGAUAUACAUGAGGAUCACCCAUGUGAGAGAAAAUAGUGAGGAAGAAAAGUAGAAGGCGCUGACG [salish99_ex3_r3_014] (puzzle: Exclusion 3)
experimental_readout: apparent KD of MS2 coat protein
u: nM
reported_measurement: 47.7
//
residue_sequence: GAAGCACAUGAGGAUCACCCAUGUGAGGAUAUCCGUCUGGUCCGGCCGGACCAGUACCGGAGAAGGCGCGUAAA [Excls1-Ia] (puzzle: Exclusion 1)
experimental_readout: apparent KD of MS2 coat protein
u: nM
reported_measurement: 40.1
//
residue_sequence: CGUGACUGAGGAUAUCUAUGAUAUCACAUGAGGAUCACCCAUGUCCAGCGAAAGCUGGAGGGAGAAGGCAGUCACG [Fiskers Ex 5 - 30] (puzzle: Exclusion 5)
experimental_readout: apparent KD of MS2 coat protein
u: nM
reported_measurement: 220

Any idea what apparent KD of MS2 coat protein was measured for GGUGCGUUUGUGAGGAUAUGCUGGUCCUUGGUUCGGCAGAAGGCACAUGAGGAUCACCCAUGUGGUGUCGUGCC [salish99_Bmod_Ex4_045] (puzzle: Brourd's mod of Exclusion 4) ?
33.1

Sample GUGUAGAUAGGAUAUACAUGAGGAUCACCCAUGUGAAUAAGAUAGAAUAAGAUAAAGUGUAGAAGGGUUAGUGU [Excluse me!!! 19 - Jieux - Exclusion 3] (puzzle: Exclusion 3) — what was its apparent KD of MS2 coat protein?
30.2

I'd like to know its apparent KD of MS2 coat protein. The sequence in question is GUGUAGAGAGGAUAUACAUGAGGAUCACCCAUGUGAAUAAGAUAGAAUAAGAUAAAGUGUAGAAGGUUUAGUGU [Excluse me!!! 18 - Jieux - Exclusion 3] (puzzle: Exclusion 3)
38.4

Reported apparent KD of MS2 coat protein, sequence UCGGCGCGAGGAUAUACGGUUGCUUUUUAGGGUCGUGGCGUACAUGAGGAUCACCCAUGUAGAAGGCGCGCCGC [Apr-15 SS2-30] (puzzle: Exclusion 2) : ____
13.8

Look at this sequence and give its reported apparent KD of MS2 coat protein. GUAAAGUGAGGAUAUGGUAAAUUAAUUAUUUAUUAAUUAAUCCAGAAGGCACAUGAGGAUCACCCAUGUAAAUG [Mat - Exclusion 4 - D94] (puzzle: Exclusion 4)
26.5

Consider the sequence shown here: UGGUGGAAGCAGGAUAUGCUAGAAGUGUAGUUUGCAGAAGGGCUAACAUGAGGAUCACCCAUGUAAGAGGUGUU [JR_E6_Sub053] (puzzle: Exclusion 6) What is its recorded apparent KD of MS2 coat protein?
211

Sample UUCAGACAUGAGGAUCACCCAUGUGAGGAUAUGAUGCGAUCGUCGAAAGACGAUAGCAUCAGAAGGCACAAAUG [Fiskers Ex 1 - 18] (puzzle: Exclusion 1) — what was its apparent KD of MS2 coat protein?
114

Returns the measured apparent KD of MS2 coat protein for the input sequence. Input: ACUUAUAGAGGAUAUACAGAAUAUUACAUGAGGAUCACCCAUGUUCUUCAAUGUAUAUUUGUAGAAGGCUAAGGAA [EX-5 Malc#7] (puzzle: Exclusion 5)
45.6
